Molecular target: VLA-4 (Homo sapiens, UniProt P05556+P13612)
Sequence (P13612 34-1032): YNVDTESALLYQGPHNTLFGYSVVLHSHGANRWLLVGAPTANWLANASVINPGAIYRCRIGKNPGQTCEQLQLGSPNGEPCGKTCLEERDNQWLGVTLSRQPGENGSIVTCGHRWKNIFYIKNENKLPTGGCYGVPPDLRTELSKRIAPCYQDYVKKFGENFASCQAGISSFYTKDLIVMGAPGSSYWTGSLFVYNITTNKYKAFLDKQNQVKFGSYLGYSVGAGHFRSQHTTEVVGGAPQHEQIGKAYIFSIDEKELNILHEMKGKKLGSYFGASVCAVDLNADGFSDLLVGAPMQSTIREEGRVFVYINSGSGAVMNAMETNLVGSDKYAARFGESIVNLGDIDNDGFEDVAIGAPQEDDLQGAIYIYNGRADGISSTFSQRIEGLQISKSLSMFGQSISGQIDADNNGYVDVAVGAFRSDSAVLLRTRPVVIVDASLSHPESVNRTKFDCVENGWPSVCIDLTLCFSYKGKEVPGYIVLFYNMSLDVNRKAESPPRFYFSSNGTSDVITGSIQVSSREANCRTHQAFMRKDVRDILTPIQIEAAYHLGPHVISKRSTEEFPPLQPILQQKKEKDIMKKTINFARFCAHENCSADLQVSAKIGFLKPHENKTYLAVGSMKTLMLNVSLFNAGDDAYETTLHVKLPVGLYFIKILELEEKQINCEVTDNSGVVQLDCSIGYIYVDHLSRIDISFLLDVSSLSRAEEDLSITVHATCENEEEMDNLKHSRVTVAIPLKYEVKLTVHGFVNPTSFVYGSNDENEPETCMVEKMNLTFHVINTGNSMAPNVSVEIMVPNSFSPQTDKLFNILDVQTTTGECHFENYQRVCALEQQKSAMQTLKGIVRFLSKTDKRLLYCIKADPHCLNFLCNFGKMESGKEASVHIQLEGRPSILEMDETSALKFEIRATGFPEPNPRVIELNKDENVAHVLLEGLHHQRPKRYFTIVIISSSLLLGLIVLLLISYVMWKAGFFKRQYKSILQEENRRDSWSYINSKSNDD
Sequence (P05556 21-798): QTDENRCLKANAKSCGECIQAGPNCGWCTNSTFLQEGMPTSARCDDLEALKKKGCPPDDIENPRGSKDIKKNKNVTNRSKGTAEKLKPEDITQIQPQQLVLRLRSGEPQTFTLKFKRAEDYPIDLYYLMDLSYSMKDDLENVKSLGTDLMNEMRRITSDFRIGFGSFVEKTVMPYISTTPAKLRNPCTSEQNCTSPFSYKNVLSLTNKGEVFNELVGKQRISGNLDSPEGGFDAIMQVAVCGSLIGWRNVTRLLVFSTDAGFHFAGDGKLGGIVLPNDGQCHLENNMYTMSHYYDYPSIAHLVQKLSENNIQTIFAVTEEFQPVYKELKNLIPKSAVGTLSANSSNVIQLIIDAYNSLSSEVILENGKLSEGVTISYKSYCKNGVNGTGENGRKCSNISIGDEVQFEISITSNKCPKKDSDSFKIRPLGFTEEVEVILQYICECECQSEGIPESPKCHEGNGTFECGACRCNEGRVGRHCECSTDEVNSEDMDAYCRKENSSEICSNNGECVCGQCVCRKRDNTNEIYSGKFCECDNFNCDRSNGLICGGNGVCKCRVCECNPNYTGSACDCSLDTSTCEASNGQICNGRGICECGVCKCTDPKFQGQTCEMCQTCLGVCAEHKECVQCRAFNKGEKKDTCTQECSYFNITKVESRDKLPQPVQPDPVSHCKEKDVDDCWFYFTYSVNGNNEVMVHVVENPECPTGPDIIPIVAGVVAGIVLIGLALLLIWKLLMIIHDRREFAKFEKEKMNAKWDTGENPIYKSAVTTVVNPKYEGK
Experiment: Purified VLA-4 Protein/Protein Assay with VCAM-Ig-AP
Assay type: binding
Set-up: endogenous in cells; host or cells: Jurkat (human T cell line)
Conditions: 1 mM MnCl2; read-out: IC50, Purified VLA-4 VCAM-Ig binding
Protocol: VLA-4 was purified from a detergent extract of a high expressing subclone of α4-transfected K562 cells by antibody affinity chromatography and immobilized on microtiter wells to establish a protein/protein competitive binding assay. VCAM-Ig-AP was bound to the purified VLA-4-coated plate in the absence or presence of oMePUPA-V (Lot #2) and 1 mM MnCl2. Plates were read at 405 nm and the data were analyzed using SoftMax v. 2.32 software.
measure_name: IC50 (nM)
Report only the number, with the unit nM understood.

Provide measured IC50 value, entry: `Cc1ccccc1NC(=O)Nc1ccc(CC(=O)N2CCC[C@H]2C(=O)N[C@H](C)CC(=O)O)cc1`
0.1

---

target: VLA-4 (Mus musculus, UniProt P09055+Q00651); assay: VCAM-Ig Competitive Binding Assay on mouse splenocytes; conditions: Mn+2
Sequence (Q00651 41-1039): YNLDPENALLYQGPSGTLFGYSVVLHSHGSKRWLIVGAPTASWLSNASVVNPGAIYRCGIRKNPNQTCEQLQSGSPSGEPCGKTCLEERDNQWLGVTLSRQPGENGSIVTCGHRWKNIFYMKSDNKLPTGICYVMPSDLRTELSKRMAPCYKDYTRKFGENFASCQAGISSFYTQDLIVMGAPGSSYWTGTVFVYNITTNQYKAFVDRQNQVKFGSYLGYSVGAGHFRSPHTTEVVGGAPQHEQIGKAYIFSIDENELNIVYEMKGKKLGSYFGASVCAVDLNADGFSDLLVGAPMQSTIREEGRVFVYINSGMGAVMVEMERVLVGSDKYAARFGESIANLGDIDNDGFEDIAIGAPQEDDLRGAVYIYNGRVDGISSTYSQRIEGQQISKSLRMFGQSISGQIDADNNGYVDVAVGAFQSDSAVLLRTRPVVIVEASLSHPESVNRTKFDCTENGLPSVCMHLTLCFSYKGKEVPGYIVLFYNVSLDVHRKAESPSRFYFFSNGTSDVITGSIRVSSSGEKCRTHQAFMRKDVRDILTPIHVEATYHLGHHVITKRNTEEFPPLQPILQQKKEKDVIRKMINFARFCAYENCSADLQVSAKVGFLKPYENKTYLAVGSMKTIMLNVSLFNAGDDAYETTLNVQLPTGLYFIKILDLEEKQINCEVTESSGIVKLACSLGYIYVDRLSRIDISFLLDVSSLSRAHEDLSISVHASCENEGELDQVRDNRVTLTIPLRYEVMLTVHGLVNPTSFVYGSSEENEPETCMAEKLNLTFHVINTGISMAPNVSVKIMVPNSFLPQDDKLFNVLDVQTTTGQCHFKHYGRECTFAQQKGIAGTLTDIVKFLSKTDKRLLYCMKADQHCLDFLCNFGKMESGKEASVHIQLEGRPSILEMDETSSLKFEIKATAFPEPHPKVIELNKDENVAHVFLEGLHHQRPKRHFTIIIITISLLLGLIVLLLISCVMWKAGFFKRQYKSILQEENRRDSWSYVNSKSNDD
Sequence (P09055 21-798): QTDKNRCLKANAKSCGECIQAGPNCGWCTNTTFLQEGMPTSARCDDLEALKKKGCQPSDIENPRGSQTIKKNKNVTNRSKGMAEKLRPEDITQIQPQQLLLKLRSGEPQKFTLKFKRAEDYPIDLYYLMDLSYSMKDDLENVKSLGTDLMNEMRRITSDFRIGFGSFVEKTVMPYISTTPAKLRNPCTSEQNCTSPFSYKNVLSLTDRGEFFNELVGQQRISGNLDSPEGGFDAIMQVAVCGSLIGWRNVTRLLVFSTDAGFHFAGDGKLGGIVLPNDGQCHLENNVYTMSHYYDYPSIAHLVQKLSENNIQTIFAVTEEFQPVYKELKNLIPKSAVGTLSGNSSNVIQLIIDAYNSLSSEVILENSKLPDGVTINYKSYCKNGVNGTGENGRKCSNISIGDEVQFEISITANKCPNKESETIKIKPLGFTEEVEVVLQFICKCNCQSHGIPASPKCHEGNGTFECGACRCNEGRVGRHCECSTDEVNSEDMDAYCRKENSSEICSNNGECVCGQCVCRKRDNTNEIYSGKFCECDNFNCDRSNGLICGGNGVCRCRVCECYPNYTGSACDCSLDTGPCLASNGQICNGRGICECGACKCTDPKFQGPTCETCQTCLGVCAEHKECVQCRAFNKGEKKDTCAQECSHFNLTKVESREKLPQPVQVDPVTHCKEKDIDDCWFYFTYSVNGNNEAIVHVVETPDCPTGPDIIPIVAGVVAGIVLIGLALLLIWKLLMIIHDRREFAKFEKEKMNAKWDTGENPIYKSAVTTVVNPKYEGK
measure_name: pIC50
Here pIC50 is given on a logarithmic scale as minus log10 of the concentration in mol/L.

Provide measured pIC50 value, entry: Cc1ccccc1NC(=O)Nc1ccc(CC(=O)N2CCC[C@H]2C(=O)N[C@H](C)CC(=O)O)cc1 [oMePUPA-V]
8.40

---

target: α4β1 (Homo sapiens, UniProt P05556+P13612); construct: endogenous in cells; assay: LIBS induction on Jurkat cells with antibody 9EG7 (FACS); settings: 2 mM Mg+2 buffer, read-out: EC50 of LIBS epitope induction
measure_name: EC50

Provide measured EC50 value, entry: Cc1ccccc1NC(=O)Nc1ccc(CC(=O)N2CCC[C@H]2C(=O)N[C@H](C)CC(=O)O)cc1 [oMePUPA-V]
~20 nM

---

target: VLA-4 (Homo sapiens, UniProt P05556+P13612); assay: VCAM-Ig Competitive Binding Assay on human PBLs; parameters: endogenous in cells; conditions: Mn+2
measure_name: IC50 (nM)
Report only the number, with the unit nM understood.

Provide measured IC50 value, entry: `Cc1ccccc1NC(=O)Nc1ccc(CC(=O)N2CCC[C@H]2C(=O)N[C@H](C)CC(=O)O)cc1`
6

---

target: α4β7 (Homo sapiens, UniProt P13612+P26010); construct: endogenous in cells; assay: VCAM-Ig Direct Binding Assay on JY cells (α4β7); conditions: read-out: IC50 against α4β7-VCAM-Ig binding
Sequence (P26010 20-798, one chain of several): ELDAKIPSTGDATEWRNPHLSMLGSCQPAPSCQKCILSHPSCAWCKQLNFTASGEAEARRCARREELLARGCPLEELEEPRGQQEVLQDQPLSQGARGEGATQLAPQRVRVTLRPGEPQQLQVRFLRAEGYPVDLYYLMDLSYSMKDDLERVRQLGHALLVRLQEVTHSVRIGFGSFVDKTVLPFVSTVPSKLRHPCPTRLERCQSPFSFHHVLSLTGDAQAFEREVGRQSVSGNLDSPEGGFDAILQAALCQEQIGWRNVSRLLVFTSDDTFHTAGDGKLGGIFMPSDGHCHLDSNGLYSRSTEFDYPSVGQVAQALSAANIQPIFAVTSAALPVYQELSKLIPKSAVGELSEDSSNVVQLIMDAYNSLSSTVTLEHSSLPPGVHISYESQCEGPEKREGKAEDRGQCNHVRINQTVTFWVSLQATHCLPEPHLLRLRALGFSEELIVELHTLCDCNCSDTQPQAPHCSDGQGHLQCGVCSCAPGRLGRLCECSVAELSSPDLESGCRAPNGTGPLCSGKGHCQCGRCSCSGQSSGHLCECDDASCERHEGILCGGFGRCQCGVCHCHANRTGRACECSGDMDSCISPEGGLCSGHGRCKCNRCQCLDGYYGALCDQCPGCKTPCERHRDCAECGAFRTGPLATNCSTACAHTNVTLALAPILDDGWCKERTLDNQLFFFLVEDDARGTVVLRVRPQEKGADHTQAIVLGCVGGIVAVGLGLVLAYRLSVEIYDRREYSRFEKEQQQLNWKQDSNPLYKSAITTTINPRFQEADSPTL
pIC50: −log10 of the molar value.
measure_name: pIC50

Answer briefly: pIC50 recorded on α4β7 (Homo sapiens, UniProt P13612+P26010) for `Cc1ccccc1NC(=O)Nc1ccc(CC(=O)N2CCC[C@H]2C(=O)N[C@H](C)CC(=O)O)cc1`
< 4.00

---

molecular target: VLA-4 (Homo sapiens, UniProt P05556+P13612); assay: VLA-4-VCAM-Ig binding (Table 1; VLA-4 binding assays); design: endogenous in cells; host or cells: Jurkat (human T cell line); conditions: read-out: IC50 against VLA-4-VCAM-Ig binding
measure_name: IC50 (nM)
Report only the number, with the unit nM understood.

Provide measured IC50 value, entry: Cc1ccccc1NC(=O)Nc1ccc(CC(=O)N2CCC[C@H]2C(=O)N[C@H](C)CC(=O)O)cc1 [oMePUPA-V]
2.7

---

biological target: VLA-4 (Homo sapiens, UniProt P05556+P13612); assay: VCAM-Ig Direct Binding Assay (DBA) on Jurkat cells; parameters: endogenous in cells; host or cells: Jurkat (human T cell line); settings: 1 mM MnCl2; read-out: IC50 ± SD, Jurkat cell VCAM-Ig Binding
measure_name: pIC50
Here pIC50 is given on a logarithmic scale as minus log10 of the concentration in mol/L.

Answer briefly: pIC50 recorded on VLA-4 (Homo sapiens, UniProt P05556+P13612) for `Cc1ccccc1NC(=O)Nc1ccc(CC(=O)N2CCC[C@H]2C(=O)N[C@H](C)CC(=O)O)cc1`
8.10

Source listed as patent US6495525B1.
